Kindly state PV neutralization % (Ab 1 ug/mL) for each of the entries shown.
molecular target: SARS-CoV-2 spike protein bearing furin mutation and truncation in retention sequence (on pseudoviral envelope) (SARS-CoV-2, UniProt P0DTC2 14-1273); test: cell-based or functional assay
Answers are plain numbers, in %.

// known answers, use as guide
{"binder": "YANG-2201 (antibody, V domains shown) VH: QEQLVESGGGVVQPGMSLRLSCAASGFTFSNYGMHWVRQSPGKGLEWVTFISYDGNNEYYVDSVKGRFTISRDNSKNTLFLQMNSLRAEDAAVYYCAKDRALNLYYFDSWGPGTLVTVSS VL: DIVMTQPPLSLPVTPGEPASISCRSSQSLLHNNAYNHLNWYLQKPGQSPQFLIYLGSNRASGVPDRFSGSGSGTDFTLKISRVEAEDVGVYYCMQSLQIPITFGQGTRLEIK", "PV neutralization % (Ab 1 ug/mL) (%)": 35.2}
{"binder": "YANG-2107 (antibody, V domains shown) VH: QVQLQESGPGLVKPSGTLSLTCAVSGGSIRSSNWWIWVRQSPGKGLEWIGEIYHGGNTNYNPSLKSRVTLSVDKSKNQFSLKLSSVTAADTAVYYCARALYDIGGVFDIWGQGTMVTVSS VL: QSALTQPASVSGSPGQSISISCTGTSSDIGGYNYVSWYQQHPGKAPKLMIYDVSERPSGVSNRFSGSKSGNTASLTISGLQAEDEGDYYCCSYAANSNVVFGGGTKLSVL", "PV neutralization % (Ab 1 ug/mL) (%)": 61.2}
{"binder": "YANG-2104 (antibody, V domains shown) VH: EVKLVESGGGLVQPGGSLRLSCAASGFTFSSHAMYWVRQSPGKGLEWVSGIGVAGDTFYVDSVKGRFTISRENARNSLSLQMNSLRAGDTAVYYCARDGYSGTHPYHFYGMDVWGQGITVVVSS VL: DIQMTQSPSSLSASVGDSVTITCRASQDINTYLAWFQQKPGKAPKSLIYVASSLQSGVPSKFSGSGSGTDFTLTISSLLPEDFATYYCQQYKSYPWTFGQGTKVEIK", "PV neutralization % (Ab 1 ug/mL) (%)": 99.3}
{"binder": "YANG-2203 (antibody, V domains shown) VH: QVQLVQSGAEVKQPGASVKVSCRASGYALTSFYVHWVRQAPGQGLEWMGIIKPSGGDTIYAQNLQGRVTMTRDTSTNTFYVELSSLRSEDTALYYCAISGNTRAFEIWGQGTMVTVSL VL: QSVLTQPPSVSAAPGQKVTISCSGSSSNIGNNFVSWYQQLPGMVPKLLIYANNKRPSGIPDRFSGSRSGTSATLGITGLQTGDEADYYCGTWDSSRSAVLFGGGTKMTVL", "PV neutralization % (Ab 1 ug/mL) (%)": 35.7}
{"binder": "YANG-2102 (antibody, V domains shown) VH: EVKLVESGGGLVQRGGSLRLSCAASGFTFSSHAMYWVRQIPGKGLEWVAGIGVAGDTFYPDSVKGRFTISRENANNSLSLQMDSLRTGDTAIYYCVRDGYSGSYPYHYYGMDVWGQGITVVVSS VL: DIQLTQSPSSLSASVGDSVTITCRASQGIDTYLAWFQQKPGKAPKSLIYVASSLQSGVPSKFSGSGSGTDFTLTISSLLPEDFATYYCQQYKSYPWTFGQGTKVEIK", "PV neutralization % (Ab 1 ug/mL) (%)": 99.4}

# batch: return PV neutralization % (Ab 1 ug/mL) for each of the 4 binders below
1. YANG-2108 (antibody, V domains shown) VH: QVQLQESGPGQVKPSGTLSLTCAVSGGSIRSSNWWIWVRQPPGKGLEWIGEIYHGGNTNYSPSLKSRVSISVDKSKNHFSLNLTSVTAADTAVYYCARALYDVGGVFDIWGQGTMVTVSS VL: QSALTQPASVSGSPGQSITISCTGSSSDVGGYNYVSWYQQHPGKAPKLMIYDVSERPSGVSNRFSGSKSGNTASLTISGLQAEDEGDYYCCSYAANSNVVFGGGTKLSVL
2. YANG-1403 (antibody, V domains shown) VH: QVQLVESGGGVVQPGRSLRLSCAASGFTFSNYGMHWVRQAPGKGLEWVAVIWYDGSNKYYADSVKGRFTISRDNSKNTLYLQMNSLRAEDTAVYFCVRETVTDGMDVWGQGTTVTVSL VL: NIQMTQSPSAMSASVGDRVTITCRARQDISNYLAWFQQKPGKVPKHLIYAASSLLSGVPSRFSGSGSGTEFTLTISSLQPEDFATYYCLHHNGYPWTFGQGTKVEIK
3. YANG-2103 (antibody, V domains shown) VH: EAQLVESGGGLIQSGGSLRLSCIASGLTVNSNYMNWVRQAPGKGLEWVSVIYSGGTTFYADSVKGRFTISRDNSKNTLYLQMTSLRAEDTAVYYCAREGYGMDVWGQGTTVTVSS VL: SYVLTQPPSVSVAPGKTARINCGGNNFGSKSVHWYQQKPGQAPVLVIYYDSDRPSGIPERFSGSNSGNTATLTISRVEAGDEADYYCQVWDNSSDHFVFGAGTKVTVL
4. YANG-2112 (antibody, V domains shown) VH: QVQLVQSGAEVKKPGASVKVSCKVSGFTLTHLSIHWVRQAPGRGLEWMGGFDPVDGQTVYAQNFQGRVTMTEDTSTDTANMDLNNLKSEDTAVYYCATGVVVPAAPYYYSSGMDVWGQGTTVTVSS VL: QSVLTQPPSTSGTPGQRVTISCSGSSSNIAKNYVYWYQQLPGTAPKLLIYRTNQRPSGVPDRFSGSRSGTSASLAISGLRSEDEATYYCATWDDTLSVIFGGGTNLTVL

Result:
81.8
99.3
97.7
88.6

Query: Given the binder YANG-2202 (antibody, V domains shown) VH: EVQLVESGGGLVQPGGSLRLSCAASGFTFSSFAMSWVRQAPGKGLEWVAAFSGRGAITHYTDSVKGRFTISRDNSKNTLYLQMNSLRAEDTAVYYCATYNWNPYYFDFWGQGTLVTVSS VL: DIQMTQSPSSVSASIGDRVTITCRASQDINIWLAWYQQKPGKAPNLLIFDTSNLQSGVPSRFSGSGSGSDFTLTISSLQPEDFATYYCQQGNSFPRTFGQGTRLEIK , write its reported PV neutralization % (Ab 1 ug/mL).
Result: 37.5

These data points were gathered from patent US20250026813A1.
